Assay read-out IC50; system under study: human JAK3 (Homo sapiens (Human)).
Sequence (P52333 whole entry): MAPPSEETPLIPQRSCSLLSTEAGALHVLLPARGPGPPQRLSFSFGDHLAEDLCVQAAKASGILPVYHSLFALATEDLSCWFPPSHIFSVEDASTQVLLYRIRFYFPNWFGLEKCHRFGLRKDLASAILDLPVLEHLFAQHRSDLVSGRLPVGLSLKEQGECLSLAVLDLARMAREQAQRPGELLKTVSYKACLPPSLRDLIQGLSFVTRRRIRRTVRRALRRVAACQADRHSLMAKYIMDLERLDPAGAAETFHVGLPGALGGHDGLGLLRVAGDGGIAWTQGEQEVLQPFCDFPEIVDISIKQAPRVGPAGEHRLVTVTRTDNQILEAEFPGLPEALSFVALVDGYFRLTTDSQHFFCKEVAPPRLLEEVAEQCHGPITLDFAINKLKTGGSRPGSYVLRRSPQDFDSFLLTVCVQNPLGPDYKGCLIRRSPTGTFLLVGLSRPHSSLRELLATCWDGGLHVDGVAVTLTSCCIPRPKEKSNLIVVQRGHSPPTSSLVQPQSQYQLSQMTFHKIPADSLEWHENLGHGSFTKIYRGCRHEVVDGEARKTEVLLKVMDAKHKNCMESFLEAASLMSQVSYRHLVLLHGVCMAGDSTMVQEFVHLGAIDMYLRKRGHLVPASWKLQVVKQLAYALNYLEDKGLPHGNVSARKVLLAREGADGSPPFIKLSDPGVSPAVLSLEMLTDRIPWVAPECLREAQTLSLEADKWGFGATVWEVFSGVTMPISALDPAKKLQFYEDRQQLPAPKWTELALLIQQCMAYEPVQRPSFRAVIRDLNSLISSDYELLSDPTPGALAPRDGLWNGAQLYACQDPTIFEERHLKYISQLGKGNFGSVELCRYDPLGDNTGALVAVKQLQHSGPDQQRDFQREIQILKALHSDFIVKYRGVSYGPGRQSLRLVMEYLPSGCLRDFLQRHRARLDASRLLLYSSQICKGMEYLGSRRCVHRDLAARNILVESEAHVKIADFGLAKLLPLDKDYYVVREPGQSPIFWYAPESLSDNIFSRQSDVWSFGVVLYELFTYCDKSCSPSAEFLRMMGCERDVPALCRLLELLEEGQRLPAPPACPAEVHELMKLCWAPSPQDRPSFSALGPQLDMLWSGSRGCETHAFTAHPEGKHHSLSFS

Compound: [2H]C([2H])([2H])N1CC[C@@H](Oc2ccc(Nc3cc(Nc4cccc(-c5ncn(C)n5)c4OC)c(C(=O)CC)cn3)nc2)C1 [Compound 18X]
IC50: 50 to 500 nM
--
Compound: CCC(=O)c1cnc(Nc2ccc(CN(C)CC(F)(F)F)cn2)cc1Nc1cccc(-c2ncn(C)n2)c1OC
IC50: ≥ 500 nM
--
Compound: CCC(=O)c1cnc(Nc2cccc(C(=O)NC)n2)cc1Nc1cccc(-c2ncn(C)n2)c1OC
IC50: ≥ 500 nM
--
Compound: CCC(=O)c1cnc(Nc2ccc(CS(C)(=O)=O)cn2)cc1Nc1cccc(-c2ncn(C)n2)c1OC [Compound 13A]
IC50: 50 to 500 nM

* * *

# Target or system: TYK2 JH2 domain (Homo sapiens (Human))
# Sequence (P29597 589-875): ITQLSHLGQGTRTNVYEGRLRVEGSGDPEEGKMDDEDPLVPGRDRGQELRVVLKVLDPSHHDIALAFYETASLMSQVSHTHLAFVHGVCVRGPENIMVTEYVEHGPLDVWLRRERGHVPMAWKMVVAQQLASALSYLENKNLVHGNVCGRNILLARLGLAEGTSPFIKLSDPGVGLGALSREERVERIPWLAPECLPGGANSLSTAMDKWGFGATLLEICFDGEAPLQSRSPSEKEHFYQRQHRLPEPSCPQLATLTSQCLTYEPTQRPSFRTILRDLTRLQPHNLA
# Procedure text: TYK2 JH2 NanoBRET assay
# Format: binding
# Condition description: HEK293T cells, Table 19, read-out: IC50 (nM), TYK2 activity
Entries and their measured IC50 follow.

Smiles str: COc1c(Nc2cc(Nc3ncccc3F)ncc2C(C)=O)cccc1-c1ncn(C)n1
IC50: 5 to 50 nM

Smiles str: COc1c(Nc2cc(Nc3cc(C)c(Cl)cn3)ncc2C(C)=O)cccc1-c1ncn(C)n1
IC50: < 5 nM

Smiles str: COc1c(Nc2cc(NC(=O)CN(C)C)ncc2C(C)=O)cccc1-c1ncn(C)n1
IC50: 50 to 500 nM

Smiles str: COc1c(Nc2cc(Nc3cccc(C)n3)ncc2C(C)=O)cccc1-c1ncn(C)n1
IC50: < 5 nM

* * *

# Target or system: human JAK2 (Homo sapiens (Human), UniProt O60674)
# Sequence (O60674 whole entry): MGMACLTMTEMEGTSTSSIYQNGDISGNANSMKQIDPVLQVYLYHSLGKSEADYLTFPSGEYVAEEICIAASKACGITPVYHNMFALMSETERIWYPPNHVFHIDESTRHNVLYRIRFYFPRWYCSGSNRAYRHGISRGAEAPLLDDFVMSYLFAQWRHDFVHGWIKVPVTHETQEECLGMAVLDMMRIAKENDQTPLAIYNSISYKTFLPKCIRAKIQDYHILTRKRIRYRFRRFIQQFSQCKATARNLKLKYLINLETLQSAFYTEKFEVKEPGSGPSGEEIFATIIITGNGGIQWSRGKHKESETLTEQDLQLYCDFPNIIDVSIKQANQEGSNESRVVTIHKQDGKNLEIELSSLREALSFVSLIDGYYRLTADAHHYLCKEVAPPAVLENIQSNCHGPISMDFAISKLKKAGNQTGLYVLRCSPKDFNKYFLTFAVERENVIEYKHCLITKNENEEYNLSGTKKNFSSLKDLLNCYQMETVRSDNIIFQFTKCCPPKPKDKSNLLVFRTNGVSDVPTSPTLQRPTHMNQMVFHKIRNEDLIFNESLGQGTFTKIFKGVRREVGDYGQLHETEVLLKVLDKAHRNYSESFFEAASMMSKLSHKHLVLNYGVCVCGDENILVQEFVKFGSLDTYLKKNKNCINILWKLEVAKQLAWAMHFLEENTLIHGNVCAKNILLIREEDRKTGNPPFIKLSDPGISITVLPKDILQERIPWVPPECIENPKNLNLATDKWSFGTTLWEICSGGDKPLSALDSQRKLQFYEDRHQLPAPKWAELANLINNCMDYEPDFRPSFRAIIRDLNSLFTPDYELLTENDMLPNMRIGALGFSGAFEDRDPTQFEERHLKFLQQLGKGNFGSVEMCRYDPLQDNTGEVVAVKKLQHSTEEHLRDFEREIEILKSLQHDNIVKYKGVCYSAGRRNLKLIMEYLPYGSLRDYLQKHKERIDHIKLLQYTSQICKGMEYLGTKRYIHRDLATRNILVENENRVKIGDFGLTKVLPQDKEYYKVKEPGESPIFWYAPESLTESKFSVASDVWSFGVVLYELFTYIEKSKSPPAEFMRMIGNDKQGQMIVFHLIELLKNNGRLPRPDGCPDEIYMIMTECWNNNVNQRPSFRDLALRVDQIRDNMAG
Value type: IC50

Compound: CCC(=O)c1cnc(Nc2cnc(OC3CCN(C)CC3)cn2)cc1Nc1cccc(-c2ncn(C)n2)c1OC
Reported measurement: ≥ 500 nM
--
Compound: CCC(=O)c1cnc(Nc2cccc(CN3CCOCC3)n2)cc1Nc1cccc(-c2ncn(C)n2)c1OC
Reported measurement: ≥ 500 nM
--
Compound: CCC(=O)c1cnc(Nc2ccc(S(C)(=O)=O)cn2)cc1Nc1ccc(CO)cc1OC [Compound 13X]
Reported measurement: 50 to 500 nM
--
Compound: CCC(=O)c1cnc(Nc2ccc(C(C)N)cn2)cc1Nc1cccc(-c2ncn(C)n2)c1OC (stereo not shown)
Reported measurement: ≥ 500 nM
--
Compound: CCC(=O)c1cnc(Nc2ccc(O[C@@H]3CCOC3)c(C)n2)cc1Nc1cccc(-c2ncn(C)n2)c1OC
Reported measurement: 50 to 500 nM
--
Compound: CCC(=O)c1cnc(Nc2cc(CN3CCCC3)n(C)n2)cc1Nc1cccc(-c2ncn(C)n2)c1OC [Compound 21G]
Reported measurement: 50 to 500 nM
--
Compound: CCC(=O)c1cnc(Nc2cc(OCCO)n(C)n2)cc1Nc1cccc(-c2ncn(C)n2)c1OC [Compound 21AA]
Reported measurement: ≥ 500 nM

* * *

Entries and their measured IC50 follow.
# Target or system: human JAK1 (Homo sapiens (Human), UniProt P23458)
# Sequence (P23458 whole entry): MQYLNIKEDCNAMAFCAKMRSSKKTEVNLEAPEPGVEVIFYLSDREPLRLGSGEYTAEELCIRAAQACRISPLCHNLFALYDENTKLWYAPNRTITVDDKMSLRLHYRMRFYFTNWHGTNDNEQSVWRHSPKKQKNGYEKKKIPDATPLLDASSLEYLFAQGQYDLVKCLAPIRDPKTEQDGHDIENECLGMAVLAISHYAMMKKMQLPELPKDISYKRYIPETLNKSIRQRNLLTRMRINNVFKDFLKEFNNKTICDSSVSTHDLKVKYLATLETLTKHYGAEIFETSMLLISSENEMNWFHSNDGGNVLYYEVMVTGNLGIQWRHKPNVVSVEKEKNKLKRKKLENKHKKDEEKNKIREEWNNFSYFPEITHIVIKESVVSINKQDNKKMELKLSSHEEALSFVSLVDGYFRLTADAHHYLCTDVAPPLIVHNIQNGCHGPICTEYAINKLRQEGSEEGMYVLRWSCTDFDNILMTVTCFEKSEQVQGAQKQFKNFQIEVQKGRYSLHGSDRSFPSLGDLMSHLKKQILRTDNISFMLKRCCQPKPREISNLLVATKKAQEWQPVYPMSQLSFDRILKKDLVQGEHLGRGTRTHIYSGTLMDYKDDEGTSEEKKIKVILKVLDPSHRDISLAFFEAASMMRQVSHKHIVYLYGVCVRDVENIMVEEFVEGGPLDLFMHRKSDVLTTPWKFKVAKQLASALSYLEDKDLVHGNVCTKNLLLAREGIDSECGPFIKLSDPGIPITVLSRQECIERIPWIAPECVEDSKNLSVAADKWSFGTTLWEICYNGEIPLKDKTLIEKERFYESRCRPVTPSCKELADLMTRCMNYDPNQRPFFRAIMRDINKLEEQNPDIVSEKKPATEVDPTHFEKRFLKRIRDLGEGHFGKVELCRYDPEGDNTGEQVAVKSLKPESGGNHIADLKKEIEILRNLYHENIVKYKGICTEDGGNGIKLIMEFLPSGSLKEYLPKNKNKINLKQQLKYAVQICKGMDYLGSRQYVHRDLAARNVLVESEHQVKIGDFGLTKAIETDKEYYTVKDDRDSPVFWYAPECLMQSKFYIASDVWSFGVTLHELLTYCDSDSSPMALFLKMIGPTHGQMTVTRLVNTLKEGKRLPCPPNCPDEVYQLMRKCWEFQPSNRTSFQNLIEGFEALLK
# Procedure text: JAK1 TR-FRET kinase assay
# Format: biochemical
# Condition description: TR-FRET, JAK1 2.5 nM
Value type: IC50

Compound: CCC(=O)c1cnc(Nc2ccc(O[C@@H]3CCN(C)C3)c(C)n2)cc1Nc1cccc(-c2ncn(C)n2)c1OC [Compound 18YYY]
Reported measurement: ≥ 0.5 µM

Compound: CCC(=O)c1cnc(Nc2ccc(-c3cnn(C)c3)cn2)cc1Nc1cccc(-c2ncn(C)n2)c1OC [Compound 15D]
Reported measurement: ≥ 0.5 µM

Compound: COc1c(-c2ncn(C)n2)ccnc1Nc1cc(Nc2ccc(-c3cn(C)cn3)cn2)ncc1C(=O)C1CC1 [Compound 15L]
Reported measurement: ≥ 0.5 µM

Compound: [2H]C([2H])([2H])CC(=O)c1cnc(Nc2ccn(-c3ccccc3)c(=O)n2)cc1Nc1cccc(-c2ncn(C)n2)c1OC [Compound 15T]
Reported measurement: ≥ 0.5 µM

Ref: patent US20230295119A1
